METHOD_DESCRIPTION: Therapeutic index, ratio of IC50 for human H9 cells to EC50 for HIV1 3B
Type: cell-based
MEASUREMENT_CONDITIONS: H9 cells (cytotoxicity) and HIV-1 3B (antiviral), read-out: TI
For each entry below, report its selectivity ratio value.
Note: the reply should be a number with no unit written.

The compound `COC(=O)[C@]12CCC(C)(C)C[C@@H]1C1=CC[C@@H]3[C@@]4(C)CC[C@H](O[C@@H]5O[C@H](CO[C@@H]6OC[C@H](O)[C@H](O)[C@H]6O[C@@H]6OC[C@@H](O)[C@H](O)[C@H]6O)[C@@H](O)[C@H](O)[C@H]5O)C(C)(C)[C@@H]4CC[C@@]3(C)[C@]1(C)C[C@H]2O` showed selectivity ratio equal to 2.2

The reported selectivity ratio of the compound `CC1(C)CC[C@]2(C(=O)O)[C@H](O)C[C@]3(C)C(=CC[C@@H]4[C@@]5(C)CC[C@H](O)C(C)(C)[C@@H]5CC[C@]43C)[C@@H]2C1` was 1.8

# compound `CCCCC(=O)O[C@H]1CC[C@]2(C)[C@H]3CC=C4[C@H]5CC(C)(C)CC[C@]5(C(=O)OC)[C@H](OC(=O)CCCC)C[C@@]4(C)[C@]3(C)CC[C@H]2C1(C)C` ; its selectivity ratio = 1.8

`CCCC(=O)O[C@H]1CC[C@]2(C)[C@H]3CC=C4[C@H]5CC(C)(C)CC[C@]5(C(=O)OC)[C@H](O)C[C@@]4(C)[C@]3(C)CC[C@H]2C1(C)C` yielded selectivity ratio of 1

Sample `CC1(C)C[C@@H]2C3=CC[C@@H]4[C@@]5(C)C[C@H](O)[C@H](O)[C@@](C)(CO)[C@@H]5CC[C@@]4(C)[C@]3(C)C[C@H](O)[C@@]23C[C@@H]1OC3=O` ; selectivity ratio observed: 5

Sample `CC1(C)CC[C@]2(C(=O)O)[C@H](O)C[C@]3(C)C(=CC[C@@H]4[C@@]5(C)CC[C@H](O[C@@H]6O[C@H](CO[C@@H]7OC[C@H](O)[C@H](O)[C@H]7O)[C@@H](O)[C@H](O)[C@H]6O)C(C)(C)[C@@H]5CC[C@]43C)[C@H]2C1` ; selectivity ratio observed: 3.8

Per the records, this compound ( COC(=O)[C@]12CCC(C)(C)C[C@@H]1C1=CC[C@@H]3[C@@]4(C)CC[C@H](O)C(C)(C)[C@@H]4CC[C@@]3(C)[C@]1(C)C[C@H]2O [METHYL ECHINOCYSTATE] ) has selectivity ratio equal to 1.6

====

For each record, write down the corresponding selectivity ratio.
METHOD_DESCRIPTION: Therapeutic index, ratio of IC50 for human H9 cells to EC50 for HIV1 3B
Assay type: cell-based
MEASUREMENT_CONDITIONS: H9 cells (cytotoxicity) and HIV-1 3B (antiviral), read-out: TI
Reply with just the number.

In plain terms, `COC(=O)[C@]12CCC(C)(C)C[C@@H]1C1=CC[C@@H]3[C@@]4(C)CC[C@H](OC(C)=O)C(C)(C)[C@@H]4CC[C@@]3(C)[C@]1(C)C[C@H]2O` has a documented selectivity ratio of 1.5

Short answer for `CC(=O)O[C@H]1CC[C@]2(C)[C@H]3CC=C4[C@H]5CC(C)(C)CC[C@]5(C(=O)O)[C@H](OC(C)=O)C[C@@]4(C)[C@]3(C)CC[C@H]2C1(C)C` : selectivity ratio was 5.4

Form field selectivity ratio, entry `CCCCC(=O)O[C@H]1CC[C@]2(C)[C@H]3CC=C4[C@H]5CC(C)(C)CC[C@]5(C(=O)OC)[C@H](O)C[C@@]4(C)[C@]3(C)CC[C@H]2C1(C)C` : 5.9

All values here come from ChEMBL document CHEMBL1159288.
